The measured values listed here are drawn from patent US20160257697A1.

test system: HCV replicon 1AY93H; assay: microbe, parasite or virus in culture; format: cell-based, Hepatitis C virus (HCV); details: read-out: 1A Y93H IC50; replicon 1AY93H; Replicon Assay A
Measured IC50 of individual entries
Unit nM implied. Number only.

Examples with answers:
INSERT INTO assay_data (compound, assayedtarget, assayvalue) VALUES
  ('COC(=O)NC(C(=O)N1CCC[C@H]1c1ncc(-c2cc(F)c3c(c2)OC(c2ccc(C4CC4)s2)n2c-3cc3cc(-c4cnc([C@@H]5CCCN5C(=O)[C@@H](NC(=O)OC)C(C)C)[nH]4)ccc32)[nH]1)C(C)(C)F (single isomer, unassigned) [Compound 70]', 'HCV replicon 1AY93H', 10.5),
  ('CCc1ccc(C2Oc3cc(-c4cnc([C@@H]5CCCN5C(=O)C(NC(=O)OC)C5C[C@@H](C)O[C@@H](C)C5)[nH]4)cc(F)c3-c3cc4cc(-c5cnc([C@@H]6CCCN6C(=O)[C@@H](NC(=O)OC)C(C)C)[nH]5)ccc4n32)s1 (single isomer, unassigned) [Compound 157]', 'HCV replicon 1AY93H', 2.32),
  ('COC(=O)NC(C(=O)N1[C@@H]2C[C@@H]2C[C@H]1c1ncc(-c2ccc3c(c2)cc2n3C(c3ccc(C4CC4)s3)Oc3cc(-c4cnc([C@@H]5CCCN5C(=O)[C@@H](NC(=O)OC)C(C)C)[nH]4)cc(F)c3-2)[nH]1)C1C[C@@H](C)O[C@@H](C)C1 (single isomer, unassigned) [Compound 274]', 'HCV replicon 1AY93H', 7.87);

Kindly review the next compound as well.
Returns the measured IC50 for the input compound. Input: COC(=O)NC(C(=O)N1CCC[C@H]1c1ncc(-c2cc(F)c3c(c2)OC(c2ccc(C4CCC4)s2)n2c-3cc3cc(-c4cnc([C@@H]5CCCN5C(=O)[C@@H](NC(=O)OC)C5CCOCC5)[nH]4)ccc32)[nH]1)C(C)(C)F (single isomer, unassigned) [Compound 248] 0.11

====

System: HCV replicon 1B
Assay: microbe, parasite or virus in culture
Format: cell-based, Hepatitis C virus (HCV)
Conditions: Hepatitis C virus, HCV replicon 1B; Replicon Assay B
Protocol: In an alternate assay (“Replicon Assay B”), 1000 cells were seeded per well in a 384-well collagen coated black plate from Greiner bio-one (Cat #781946) in 5% FBS. Inhibitors of this invention were added at 24 h post-seeding, and the plates were incubated for 3 days. […] HCV replicon RNA level was measured by real-time PCR using the RNA-to-CT kit from Applied Biosystem (Cat #4392656) and genotype-specific primers and probes. […]
Measured IC50 of individual entries
Unit pM implied. Number only.

INSERT INTO assay_data (compound, outcomemeasure, assayvalue) VALUES
  ('COC(=O)NC(C(=O)N1CCC[C@H]1c1ncc(-c2ccc3c(c2)c(F)c2n3C(c3ccc(C4CC4)s3)Oc3cc(-c4cnc([C@@H]5CCCN5C(=O)[C@@H](NC(=O)OC)C(C)C)[nH]4)cc(F)c3-2)[nH]1)C1CCOC(C)(C)C1 (single isomer, unassigned) [Compound 413]', 'IC50', 3),
  ('COC(=O)N[C@H](C(=O)N1CCC[C@H]1c1ncc(-c2cc(F)c3c(c2)OC(c2ccc(CC(C)C)s2)n2c-3cc3cc(-c4cnc([C@@H]5CCCN5C(=O)[C@@H](NC(=O)OC)C(C)C)[nH]4)ccc32)[nH]1)C(C)C (single isomer, unassigned) [Compound 520]', 'IC50', 9.24),
  ('COC(=O)NC(C(=O)N1[C@@H]2C[C@@H]2C[C@H]1c1ncc(-c2ccc3c(c2)cc2n3C(c3cc4c(s3)CCC4)Oc3cc(-c4cnc([C@@H]5CCCN5C(=O)[C@@H](NC(=O)OC)C(C)C)[nH]4)cc(F)c3-2)[nH]1)C(C)C (single isomer, unassigned) [Compound 659]', 'IC50', 1.91);

Kindly review the next compound as well.
Returns the measured IC50 for the input compound. Input: COC(=O)N[C@H](C(=O)N1CCC[C@H]1c1ncc(-c2cc(C)c3c(c2)OC(c2cc4c(s2)CCC4)n2c-3cc3cc(-c4cnc([C@@H]5CCCN5C(=O)[C@@H](NC(=O)OC)C5C[C@@H](C)O[C@@H](C)C5)[nH]4)ccc32)[nH]1)C(C)C (single isomer, unassigned) [Compound 548] 9.68
